ASSAY SYSTEM: ErbB2 insYVMA (HER2-YVMA, SEQ ID NO: 2) (Homo sapiens, UniProt P04626, INS775YVMA/P1170A)
Sequence (P04626 with tags, fused parts or gaps INS775YVMA/P1170A limits assumed): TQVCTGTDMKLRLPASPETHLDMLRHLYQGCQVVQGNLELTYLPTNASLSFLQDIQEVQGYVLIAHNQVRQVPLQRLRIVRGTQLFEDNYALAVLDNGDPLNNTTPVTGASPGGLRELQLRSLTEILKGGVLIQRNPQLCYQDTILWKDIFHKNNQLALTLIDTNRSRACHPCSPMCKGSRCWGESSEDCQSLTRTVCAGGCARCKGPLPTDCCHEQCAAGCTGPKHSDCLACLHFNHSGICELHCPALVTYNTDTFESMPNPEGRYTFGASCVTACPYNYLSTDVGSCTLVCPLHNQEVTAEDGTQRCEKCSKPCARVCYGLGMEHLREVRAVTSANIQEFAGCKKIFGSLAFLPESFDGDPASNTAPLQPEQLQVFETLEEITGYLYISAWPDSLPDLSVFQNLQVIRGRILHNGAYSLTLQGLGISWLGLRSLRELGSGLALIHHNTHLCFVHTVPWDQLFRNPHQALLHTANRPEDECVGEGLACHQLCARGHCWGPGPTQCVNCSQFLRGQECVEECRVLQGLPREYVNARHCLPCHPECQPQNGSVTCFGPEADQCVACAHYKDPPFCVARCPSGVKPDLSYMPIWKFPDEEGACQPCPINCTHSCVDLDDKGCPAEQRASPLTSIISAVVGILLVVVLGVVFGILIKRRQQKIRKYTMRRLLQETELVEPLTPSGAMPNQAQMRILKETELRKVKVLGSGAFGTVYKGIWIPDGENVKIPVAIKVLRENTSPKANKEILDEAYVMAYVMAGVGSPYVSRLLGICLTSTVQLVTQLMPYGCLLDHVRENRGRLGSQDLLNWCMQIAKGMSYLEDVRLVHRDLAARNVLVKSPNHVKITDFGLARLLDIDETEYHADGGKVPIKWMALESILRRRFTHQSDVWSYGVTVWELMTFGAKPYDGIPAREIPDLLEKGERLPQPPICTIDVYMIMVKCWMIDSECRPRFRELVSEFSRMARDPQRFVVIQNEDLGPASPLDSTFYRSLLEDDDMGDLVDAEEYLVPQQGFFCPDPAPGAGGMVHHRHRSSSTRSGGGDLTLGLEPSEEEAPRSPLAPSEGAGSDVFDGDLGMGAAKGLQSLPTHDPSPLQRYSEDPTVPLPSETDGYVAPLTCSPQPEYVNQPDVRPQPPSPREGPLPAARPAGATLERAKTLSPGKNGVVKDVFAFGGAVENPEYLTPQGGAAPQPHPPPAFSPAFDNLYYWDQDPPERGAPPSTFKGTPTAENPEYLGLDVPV
PROCEDURE SUMMARY: biochemical
CONDITION SUMMARY: ErbB2 insYVMA enzyme assay; read-out: Assay 1 IC50
METRIC: pIC50
pIC50 here: minus log base 10 of the concentration, concentration in moles per litre.

Worked cases, answers included:
{"COMPOUND": "Cn1cnc2cc(Oc3ccc(Nc4ncnc5cnc(N6CC[C@@H](CC#N)C6)nc45)cc3Cl)ccc21 [Example 134]", "pIC50": 7.26}
{"COMPOUND": "Cc1cc(Nc2ncnc3cnc(N4CC[C@H]4C(C)(C)O)nc23)ccc1Oc1ccc2c(c1)ncn2C [Example 407]", "pIC50": 7.50}
{"COMPOUND": "Cc1cc(Nc2ncnc3cnc(N4CC[C@@H]4C(C)(C)O)nc23)ccc1Oc1ccc2c(c1)ncn2C [Example 397]", "pIC50": 7.69}

The record that follows has no pIC50 shown yet.
For the compound shown here, Cc1cc(Nc2ncnc3cnc(N4C5COCC4C5)nc23)ccc1Oc1ccc2c(c1)ncn2C [Example 255] , give the reported pIC50. 6.95

###

ASSAY SYSTEM: ErbB2 insYVMA (HER2-YVMA, SEQ ID NO: 2) (Homo sapiens, UniProt P04626, INS775YVMA/P1170A)
PROCEDURE SUMMARY: biochemical
CONDITION SUMMARY: ErbB2 insYVMA enzyme assay; read-out: Assay 1 IC50
Entries annotated with measured IC50
Quick note: give the figure in µM, leave out the unit.

Worked cases, answers included:
{"COMPOUND": "Cc1c(Oc2ccc3c(c2)ncn3C)ccc(Nc2ncnc3cnc(N4CCC[C@](C)(O)C4)nc23)c1F", "ASSAY SYSTEM": "ErbB2 insYVMA (HER2-YVMA, SEQ ID NO: 2) (Homo sapiens, UniProt P04626, INS775YVMA/P1170A)", "METRIC": "IC50", "UNIT INFO": "µM", "READING": 0.0742}
{"COMPOUND": "Cc1cc(Nc2ncnc3cnc(N(C)[C@H]4C[C@](C)(O)C4)nc23)ccc1Oc1ccc2c(c1)ncn2C", "ASSAY SYSTEM": "ErbB2 insYVMA (HER2-YVMA, SEQ ID NO: 2) (Homo sapiens, UniProt P04626, INS775YVMA/P1170A)", "METRIC": "IC50", "UNIT INFO": "µM", "READING": 0.0135}
{"COMPOUND": "Cc1cc(Nc2ncnc3cnc(N4C[C@H]5C[C@@H]4C[C@@H]5O)nc23)ccc1Oc1ccc2c(c1)ncn2C", "ASSAY SYSTEM": "ErbB2 insYVMA (HER2-YVMA, SEQ ID NO: 2) (Homo sapiens, UniProt P04626, INS775YVMA/P1170A)", "METRIC": "IC50", "UNIT INFO": "µM", "READING": 0.0335}

Give recorded IC50 with ErbB2 insYVMA (HER2-YVMA, SEQ ID NO: 2) (Homo sapiens, UniProt P04626, INS775YVMA/P1170A) for the following compound: `Cc1cc(Nc2ncnc3cnc(N4CCC4)nc23)ccc1Oc1ccn2ncnc2c1` 0.0257

Give recorded IC50 with ErbB2 insYVMA (HER2-YVMA, SEQ ID NO: 2) (Homo sapiens, UniProt P04626, INS775YVMA/P1170A) for the following compound: `Cc1cc(Nc2ncnc3cnc(N4CCC[C@@](C)(O)C4)nc23)ccc1Oc1ccn2ncnc2c1` 0.0252

Give recorded IC50 with ErbB2 insYVMA (HER2-YVMA, SEQ ID NO: 2) (Homo sapiens, UniProt P04626, INS775YVMA/P1170A) for the following compound: `Cn1cnc2cc(Oc3ccc(Nc4ncnc5cnc(N6CCC(C)(O)CC6)nc45)cc3Cl)ccc21` 0.0181

Give recorded IC50 with ErbB2 insYVMA (HER2-YVMA, SEQ ID NO: 2) (Homo sapiens, UniProt P04626, INS775YVMA/P1170A) for the following compound: `Cc1cc(Nc2ncnc3cnc(NC4CCC4)nc23)ccc1Oc1ccc2c(c1)ncn2C` 0.0562

Give recorded IC50 with ErbB2 insYVMA (HER2-YVMA, SEQ ID NO: 2) (Homo sapiens, UniProt P04626, INS775YVMA/P1170A) for the following compound: Cc1c(Oc2ccc3c(c2)ncn3C)ccc(Nc2ncnc3cnc(N4CC5CC5(O)C4)nc23)c1F (centres unmarked) 0.0796

###

ASSAY SYSTEM: BCRP (Homo sapiens (Human), UniProt Q9UNQ0)
Sequence (Q9UNQ0 whole entry): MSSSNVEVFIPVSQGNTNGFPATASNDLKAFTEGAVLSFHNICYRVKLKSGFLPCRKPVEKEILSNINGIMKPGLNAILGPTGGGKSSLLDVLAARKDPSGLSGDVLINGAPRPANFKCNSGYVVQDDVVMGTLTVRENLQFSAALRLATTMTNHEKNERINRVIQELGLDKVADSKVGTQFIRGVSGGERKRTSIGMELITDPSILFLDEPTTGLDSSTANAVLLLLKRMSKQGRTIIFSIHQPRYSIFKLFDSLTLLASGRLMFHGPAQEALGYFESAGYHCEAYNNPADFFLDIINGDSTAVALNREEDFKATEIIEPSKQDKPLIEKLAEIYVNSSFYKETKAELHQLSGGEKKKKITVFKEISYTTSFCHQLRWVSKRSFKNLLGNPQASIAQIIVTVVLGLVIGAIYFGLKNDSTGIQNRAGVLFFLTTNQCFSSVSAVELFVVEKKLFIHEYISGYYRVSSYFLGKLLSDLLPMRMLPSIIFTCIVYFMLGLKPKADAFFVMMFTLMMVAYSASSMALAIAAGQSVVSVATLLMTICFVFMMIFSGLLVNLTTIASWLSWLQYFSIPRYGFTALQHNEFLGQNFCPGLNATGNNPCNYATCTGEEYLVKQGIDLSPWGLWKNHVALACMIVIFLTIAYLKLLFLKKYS
PROCEDURE SUMMARY: BCRP transfected MDCKII canine Mdr1 knockout permeability/efflux, Assay 9
CONDITION SUMMARY: dog, Assay 9 Pe Ratio, efflux ratio Papp(B-A)/Papp(A-B), BCRP transfected MDCKII canine Mdr1 knockout
# note: boundary value 6 maps to no; efflux ratio at 2 h, 1 μM below it maps to yes

Here's what some known entries look like.
{"COMPOUND": "Cc1cc(Nc2ncnc3cnc(N4CC[C@H](C#N)C4)nc23)ccc1Oc1ccc2c(c1)ncn2C", "CATEGORY": "yes"}
{"COMPOUND": "Cc1cc(Nc2ncnc3cnc(N4CC5CC5(O)C4)nc23)ccc1Oc1ccc2c(c1)ncn2C (stereo not shown)", "CATEGORY": "no"}
{"COMPOUND": "Cc1cc(Nc2ncnc3cnc(N4C[C@H](O)C(F)(F)C4)nc23)c(F)cc1Oc1ccc2c(c1)ncn2C", "CATEGORY": "no"}
{"COMPOUND": "Cn1cnc2cc(Oc3ccc(Nc4ncnc5cnc(N6CCC7COCC76)nc45)cc3Cl)ccc21 (stereo not shown)", "CATEGORY": "yes"}
{"COMPOUND": "Cc1cc(Nc2ncnc3cnc(N4C(C)CCS4(=O)=O)nc23)ccc1Oc1ccc2c(c1)ncn2C.O=C(O)C(F)(F)F (stereo not shown)", "CATEGORY": "no"}
{"COMPOUND": "Cc1c(Oc2ccn3ncnc3c2)ccc(Nc2ncnc3cnc(N4CCC(C)(O)CC4)nc23)c1F", "CATEGORY": "no"}

# TODO verify efflux ratio at 2 h, 1 μM < 6 strictly for this compound: `Cc1cc(Nc2ncnc3cnc(N4C[C@H]5C[C@@H]4CO5)nc23)ccc1Oc1ccc2c(c1)ncn2C` yes

###

Entries annotated with measured IC50
ASSAY SYSTEM: ErbB2 insYVMA (HER2-YVMA, SEQ ID NO: 2) (Homo sapiens, UniProt P04626, INS775YVMA/P1170A)
PROCEDURE SUMMARY: biochemical
CONDITION SUMMARY: ErbB2 insYVMA enzyme assay; read-out: Assay 1 IC50
Quick note: give the figure in µM, leave out the unit.

{"MOLECULE": "Cc1cc(Nc2ncnc3cnc(O[C@H]4CCNC[C@@H]4F)nc23)ccc1Oc1ccc2c(c1)ncn2C", "UNIT INFO": "µM", "IC50": 0.0839}
{"MOLECULE": "Cc1cc(Nc2ncnc3cnc(N4CC[C@H](F)[C@@H](O)C4)nc23)ccc1Oc1ccc2c(c1)ncn2C", "UNIT INFO": "µM", "IC50": 0.0194}

For the molecule shown here, `Cc1cc(Nc2ncnc3cnc(N(C)CC4COC4)nc23)ccc1Oc1ccc2c(c1)ncn2C` , give the reported IC50. 0.0397

For the molecule shown here, Cc1cc(Nc2ncnc3cnc(N4CC5C6CCC(O6)C5C4)nc23)ccc1Oc1ccc2c(c1)ncn2C (stereo not shown) , give the reported IC50. 0.026

###

ASSAY SYSTEM: BCRP (Homo sapiens (Human))
PROCEDURE SUMMARY: BCRP transfected MDCKII canine Mdr1 knockout permeability/efflux, Assay 9
CONDITION SUMMARY: dog, Assay 9 Pe Ratio, efflux ratio Papp(B-A)/Papp(A-B), BCRP transfected MDCKII canine Mdr1 knockout
METRIC: efflux ratio at 2 h, 1 μM
Answer with the value's number alone.

{"COMPOUND": "Cc1cc(Nc2ncnc3cnc(N4CCOCC4)nc23)c(F)cc1Oc1ccc2c(c1)ncn2C.O=C(O)C(F)(F)F [Example 78]", "efflux ratio at 2 h, 1 μM": 1.1}
{"COMPOUND": "Cc1cc(Nc2ncnc3cnc(NCC(F)F)nc23)ccc1Oc1cc(F)c2c(c1)ncn2C [Example 207]", "efflux ratio at 2 h, 1 μM": 1.7}
{"COMPOUND": "Cc1cc(Nc2ncnc3cnc(N4CC[C@@H](C#N)C4)nc23)ccc1Oc1ccc2c(c1)ncn2C [Example 184]", "efflux ratio at 2 h, 1 μM": 4.2}

For the compound shown here, Cc1cc(Nc2ncnc3cnc(N4CCN5CCOC[C@H]5C4)nc23)ccc1Oc1ccc2c(c1)ncn2C [Example 180] , give the reported efflux ratio at 2 h, 1 μM. 2.7

For the compound shown here, Cc1cc(Nc2ncnc3cnc(N4CC[C@@](O)(C(F)F)C4)nc23)ccc1Oc1ccc2c(c1)ncn2C (racemic) [Example 106] , give the reported efflux ratio at 2 h, 1 μM. 24.3

For the compound shown here, [2H]C([2H])([2H])Nc1ncc2ncnc(Nc3ccc(Oc4ccc5c(c4)ncn5C)c(C)c3)c2n1 [Example 65] , give the reported efflux ratio at 2 h, 1 μM. 1.9

For the compound shown here, Cc1cc(Nc2ncnc3cnc(N4C[C@@H](O)C(F)(F)C4)nc23)ccc1Oc1ccc2c(c1)ncn2C [Example 185] , give the reported efflux ratio at 2 h, 1 μM. 31.7
